- Tested on: total proteases
- ASSAY: Total proteolytic activity of fourth instar midgut homogenate, azocasein (in vitro)
- Format: biochemical, Rhynchophorus ferrugineus
- CONDITION INFO: fourth instar larvae midgut homogenate
Can you tell me IC50 against total proteases (in vitro) for the items I'm about to list?
Write the numeric value and append its unit.

Query: Name the recorded IC50 against total proteases (in vitro) for O=C(/C=C/c1ccc(O)c(O)c1)O/C=C\c1ccc(O)c(O)c1 .
Response: 102.4 µg/mL

Query: Name the recorded IC50 against total proteases (in vitro) for O=C(O)C[C@H](C(=O)O)[C@@H](O)C(=O)O .
Response: 143.3 µg/mL

Query: Name the recorded IC50 against total proteases (in vitro) for COc1ccc(-c2cc(=O)c3c(O)c(OC)c(OC)cc3o2)cc1 [Salvigenin, 5-Hydroxy-6,7,4′-trimethoxyflavone] .
Response: 72.4 µg/mL

Query: Name the recorded IC50 against total proteases (in vitro) for C[C@@H]1O[C@@H](OC[C@H]2O[C@@H](Oc3c(-c4ccc(O)c(O)c4)oc4cc(O)cc(O)c4c3=O)[C@H](O)[C@@H](O)[C@@H]2O)[C@H](O)[C@H](O)[C@H]1O [Quercetin-3-O-rutinoside] .
Response: 82.6 µg/mL

Query: Name the recorded IC50 against total proteases (in vitro) for O=C(/C=C/c1ccc(O)c(O)c1)O[C@H](Cc1ccc(O)c(O)c1)C(=O)O .
Response: 109.6 µg/mL

Query: Name the recorded IC50 against total proteases (in vitro) for C[C@H]1[C@H](C)CC[C@]2(C(=O)O)CC[C@]3(C)C(=CC[C@@H]4[C@@]5(C)CC[C@H](O)C(C)(C)[C@@H]5CC[C@]43C)[C@H]12 .
Response: 67.2 µg/mL
